Protein target, amino acids: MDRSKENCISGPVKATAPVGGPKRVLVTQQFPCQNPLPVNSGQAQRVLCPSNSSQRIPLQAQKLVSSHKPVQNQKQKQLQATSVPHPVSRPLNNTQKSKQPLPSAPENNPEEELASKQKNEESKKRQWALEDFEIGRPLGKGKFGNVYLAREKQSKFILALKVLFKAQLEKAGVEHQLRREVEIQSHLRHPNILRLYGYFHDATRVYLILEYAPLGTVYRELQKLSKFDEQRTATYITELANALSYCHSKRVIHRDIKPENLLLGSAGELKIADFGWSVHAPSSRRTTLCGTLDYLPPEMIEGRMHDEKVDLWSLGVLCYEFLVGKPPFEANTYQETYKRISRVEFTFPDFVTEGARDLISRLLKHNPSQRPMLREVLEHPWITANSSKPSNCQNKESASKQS
Reported endpoint: IC50

q: Look up IC50 for this molecule: CCN1CCN(Cc2ccc(Nc3ncc(F)c(-c4cc(F)c5nc(C)n(C(C)C)c5c4)n3)nc2)CC1 [LY2835219]
a: > 20 µM

----------
# Measured target: HIPK2 (Homo sapiens, UniProt Q9H2X6)
# Sequence (Q9H2X6 whole entry): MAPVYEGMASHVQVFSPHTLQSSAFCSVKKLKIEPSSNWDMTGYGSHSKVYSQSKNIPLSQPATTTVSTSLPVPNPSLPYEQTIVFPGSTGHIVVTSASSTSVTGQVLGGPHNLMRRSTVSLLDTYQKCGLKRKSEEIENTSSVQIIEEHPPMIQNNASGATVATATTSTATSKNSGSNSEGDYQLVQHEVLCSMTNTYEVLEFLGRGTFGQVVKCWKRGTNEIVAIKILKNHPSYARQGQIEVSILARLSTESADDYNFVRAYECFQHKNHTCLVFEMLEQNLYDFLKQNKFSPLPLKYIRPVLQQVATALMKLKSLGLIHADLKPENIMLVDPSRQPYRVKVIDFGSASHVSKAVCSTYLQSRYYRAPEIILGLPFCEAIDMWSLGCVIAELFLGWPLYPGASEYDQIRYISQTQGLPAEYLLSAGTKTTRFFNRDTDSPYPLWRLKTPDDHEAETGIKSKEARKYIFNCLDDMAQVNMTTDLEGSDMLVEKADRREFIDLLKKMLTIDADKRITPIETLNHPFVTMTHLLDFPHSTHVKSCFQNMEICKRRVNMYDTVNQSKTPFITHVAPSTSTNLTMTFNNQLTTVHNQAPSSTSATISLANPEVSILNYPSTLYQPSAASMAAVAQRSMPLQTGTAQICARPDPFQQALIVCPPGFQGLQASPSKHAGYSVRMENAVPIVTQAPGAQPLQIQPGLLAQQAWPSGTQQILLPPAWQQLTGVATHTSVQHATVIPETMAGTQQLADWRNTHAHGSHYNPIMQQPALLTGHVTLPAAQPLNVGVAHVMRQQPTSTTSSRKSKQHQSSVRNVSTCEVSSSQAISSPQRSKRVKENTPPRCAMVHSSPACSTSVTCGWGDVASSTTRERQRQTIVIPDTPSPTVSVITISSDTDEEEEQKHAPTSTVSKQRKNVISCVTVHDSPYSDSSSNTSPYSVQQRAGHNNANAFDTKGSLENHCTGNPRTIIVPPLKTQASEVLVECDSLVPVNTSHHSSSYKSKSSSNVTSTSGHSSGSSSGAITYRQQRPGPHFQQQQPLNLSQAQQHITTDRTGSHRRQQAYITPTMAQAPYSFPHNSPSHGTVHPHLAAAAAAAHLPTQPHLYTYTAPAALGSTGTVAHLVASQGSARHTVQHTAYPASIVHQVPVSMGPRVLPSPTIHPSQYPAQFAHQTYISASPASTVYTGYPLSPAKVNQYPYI
Reported endpoint: pIC50
FYI, pIC50 means -log10 of a concentration in mol per litre.

q: Look up pIC50 for this molecule: CCN1CCN(Cc2ccc(Nc3ncc(F)c(-c4cc(F)c5nc(C)n(C(C)C)c5c4)n3)nc2)CC1
a: 7.51

----------
# Measured target: PLK1 (Homo sapiens, UniProt P53350)
# Sequence (P53350 whole entry): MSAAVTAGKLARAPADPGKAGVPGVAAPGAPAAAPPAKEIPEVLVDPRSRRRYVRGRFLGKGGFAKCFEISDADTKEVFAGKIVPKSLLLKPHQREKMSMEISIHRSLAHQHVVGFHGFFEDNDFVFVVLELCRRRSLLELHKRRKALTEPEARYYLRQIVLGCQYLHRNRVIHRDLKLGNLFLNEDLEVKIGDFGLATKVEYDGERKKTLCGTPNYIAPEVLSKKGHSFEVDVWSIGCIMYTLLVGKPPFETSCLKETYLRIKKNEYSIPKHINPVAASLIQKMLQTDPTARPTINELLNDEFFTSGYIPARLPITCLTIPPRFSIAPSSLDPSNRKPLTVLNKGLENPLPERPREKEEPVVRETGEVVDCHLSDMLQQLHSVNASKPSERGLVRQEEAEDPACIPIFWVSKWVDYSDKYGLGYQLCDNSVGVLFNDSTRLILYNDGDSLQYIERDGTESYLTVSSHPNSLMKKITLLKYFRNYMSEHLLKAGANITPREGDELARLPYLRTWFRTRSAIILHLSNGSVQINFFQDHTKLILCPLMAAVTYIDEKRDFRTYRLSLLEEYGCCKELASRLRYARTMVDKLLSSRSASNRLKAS
Reported endpoint: IC50

q: I'm curious: which IC50 was measured for CCN1CCN(Cc2ccc(Nc3ncc(F)c(-c4cc(F)c5nc(C)n(C(C)C)c5c4)n3)nc2)CC1 tested on PLK1 (Homo sapiens, UniProt P53350)?
a: > 20 µM

----------
# Measured target: ERK1 (Homo sapiens)
# Sequence (P27361 whole entry): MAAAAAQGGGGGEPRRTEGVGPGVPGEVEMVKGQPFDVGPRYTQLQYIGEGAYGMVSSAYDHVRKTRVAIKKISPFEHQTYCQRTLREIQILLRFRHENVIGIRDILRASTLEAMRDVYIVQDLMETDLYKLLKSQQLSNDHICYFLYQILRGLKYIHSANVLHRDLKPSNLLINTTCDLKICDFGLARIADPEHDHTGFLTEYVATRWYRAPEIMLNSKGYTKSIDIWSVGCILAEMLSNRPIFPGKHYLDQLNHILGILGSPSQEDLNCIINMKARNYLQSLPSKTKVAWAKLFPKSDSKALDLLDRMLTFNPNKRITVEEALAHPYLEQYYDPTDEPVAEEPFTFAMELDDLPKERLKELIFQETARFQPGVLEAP
Reported endpoint: IC50

q: I'm curious: which IC50 was measured for CCN1CCN(Cc2ccc(Nc3ncc(F)c(-c4cc(F)c5nc(C)n(C(C)C)c5c4)n3)nc2)CC1 tested on ERK1 (Homo sapiens)?
a: > 20 µM

----------
# Measured target: bRaf (Homo sapiens, UniProt P15056)
# Sequence (P15056 whole entry): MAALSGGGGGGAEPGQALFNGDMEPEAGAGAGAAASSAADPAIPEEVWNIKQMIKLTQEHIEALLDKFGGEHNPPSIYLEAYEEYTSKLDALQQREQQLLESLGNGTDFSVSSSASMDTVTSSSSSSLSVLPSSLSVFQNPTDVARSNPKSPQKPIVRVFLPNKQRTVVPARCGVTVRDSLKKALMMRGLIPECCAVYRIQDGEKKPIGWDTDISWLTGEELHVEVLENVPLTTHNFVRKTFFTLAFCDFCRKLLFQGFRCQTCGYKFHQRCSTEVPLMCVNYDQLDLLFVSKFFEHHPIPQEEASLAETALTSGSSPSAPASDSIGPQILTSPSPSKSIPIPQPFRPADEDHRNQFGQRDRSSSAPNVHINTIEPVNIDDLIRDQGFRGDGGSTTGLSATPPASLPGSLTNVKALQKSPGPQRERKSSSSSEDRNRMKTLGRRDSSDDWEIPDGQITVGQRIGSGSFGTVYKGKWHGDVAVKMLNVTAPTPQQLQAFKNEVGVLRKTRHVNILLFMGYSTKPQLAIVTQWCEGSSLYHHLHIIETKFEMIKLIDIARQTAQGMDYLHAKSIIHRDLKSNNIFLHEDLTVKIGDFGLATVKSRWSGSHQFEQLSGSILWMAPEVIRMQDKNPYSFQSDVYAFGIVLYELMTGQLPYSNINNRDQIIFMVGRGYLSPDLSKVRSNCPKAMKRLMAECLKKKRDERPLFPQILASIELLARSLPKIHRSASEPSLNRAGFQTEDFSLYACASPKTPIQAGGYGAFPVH
Reported endpoint: pIC50
FYI, pIC50 means -log10 of a concentration in mol per litre.

q: I'm curious: which pIC50 was measured for CCN1CCN(Cc2ccc(Nc3ncc(F)c(-c4cc(F)c5nc(C)n(C(C)C)c5c4)n3)nc2)CC1 tested on bRaf (Homo sapiens, UniProt P15056)?
a: 5.20

----------
# Measured target: TRKA (Homo sapiens)
# Sequence (P04629 33-796): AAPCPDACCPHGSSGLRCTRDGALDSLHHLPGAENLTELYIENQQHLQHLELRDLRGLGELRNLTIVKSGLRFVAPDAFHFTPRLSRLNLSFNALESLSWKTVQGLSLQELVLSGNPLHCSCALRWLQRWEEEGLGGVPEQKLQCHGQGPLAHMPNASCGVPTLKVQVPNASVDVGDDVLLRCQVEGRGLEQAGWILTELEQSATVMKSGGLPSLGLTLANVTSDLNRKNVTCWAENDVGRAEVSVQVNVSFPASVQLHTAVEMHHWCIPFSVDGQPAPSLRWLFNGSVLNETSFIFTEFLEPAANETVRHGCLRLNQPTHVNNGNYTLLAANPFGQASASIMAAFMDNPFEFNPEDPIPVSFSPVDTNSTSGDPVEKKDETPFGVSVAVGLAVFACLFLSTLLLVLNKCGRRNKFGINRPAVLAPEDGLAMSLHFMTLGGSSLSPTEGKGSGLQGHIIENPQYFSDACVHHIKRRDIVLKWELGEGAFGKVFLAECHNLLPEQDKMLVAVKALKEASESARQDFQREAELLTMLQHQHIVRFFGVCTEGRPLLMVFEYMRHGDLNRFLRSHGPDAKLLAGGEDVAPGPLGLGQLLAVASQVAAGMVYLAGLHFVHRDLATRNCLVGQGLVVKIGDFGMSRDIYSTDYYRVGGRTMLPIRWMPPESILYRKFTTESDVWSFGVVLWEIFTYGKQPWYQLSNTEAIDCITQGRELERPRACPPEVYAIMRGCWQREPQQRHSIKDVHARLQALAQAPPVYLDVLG
Reported endpoint: IC50 (nM)
Unit nM implied. Number only.

q: I'm curious: which IC50 was measured for CCN1CCN(Cc2ccc(Nc3ncc(F)c(-c4cc(F)c5nc(C)n(C(C)C)c5c4)n3)nc2)CC1 tested on TRKA (Homo sapiens)?
a: 1030
